test system: human gammaherpesvirus 4; assay: Inhibition of TPA-induced EBV early antigen activation at 32 uM
Recorded measurements of inhibition, one per entry
The response must be a number in % with no trailing unit.

Answered cases to consult:
compound	targetSystem	inhibition [%]
CC[C@@H](C)CC[C@H]1[C@@H](C)CC[C@H]2C(C)(C)CCC[C@]12C	human gammaherpesvirus 4	92.3
CC(C)c1cc(C=O)c2c(c1O)[C@H](O)[C@H]1C(C)(C)CCC[C@]21C	human gammaherpesvirus 4	85.9
CC1=C(/C=C/C(C)=C/C=C/C(C)=C/C=C/C=C(C)/C=C/C=C(C)/C=C/C2=C(C)CCCC2(C)C)C(C)(C)CCC1	human gammaherpesvirus 4	91

Now let's try a different one.
Exercise: Given the compound CC(=O)Oc1c(C(C)C)cc(C=O)c2c1[C@H](OC(C)=O)[C@H]1C(C)(C)CCC[C@]21C [STANDISHINAL DIACETATE] , write its reported inhibition.
Solution: 84.5

---

The compounds listed here are annotated with their pEC50.
test system: KB; experiment: Cytotoxicity against human KB cells; assay type: functional, cell-based
pEC50: −log10 of the molar value.

A selection of reference data follows.
COc1c(O)c2c(c(O)c1C(C)C)C(=O)[C@H]1C(C)(C)CCC[C@]21C < 5.00
COC1=C(C(C)C)C(=O)C2=C(C1=O)[C@@]1(C)CCCC(C)(C)C1=C2 < 5.00
COc1c(O)c2c(c(O)c1C(C)C)C(=O)[C@@H]1C(C)(C)CCC[C@]21C < 5.00
CC(C)c1c(O)c2c(c3c1OCO3)[C@@]1(C)CCCC(C)(C)[C@@H]1[C@H]2C=O 5.08
COC1=C(C(C)C)C(=O)C2=C(C1=O)[C@@]1(C)CCCC(C)(C)[C@@H]1C2 < 5.00

Turning to the following compound.
Exercise: Indicate its recorded pEC50; the compound in question is CC(C)C1=C(O)C(=O)C2=C(C1=O)[C@H](C=O)[C@H]1C(C)(C)CCC[C@]21C
Solution: 5.16

---

tested on: human gammaherpesvirus 4; assay: Inhibition of TPA-induced EBV early antigen activation at 3.2 uM
reportedEndpoint: inhibition (%)
Numeric only. Scale: %

Exercise: Supply inhibition measured with human gammaherpesvirus 4 for CC1=C(/C=C/C(C)=C/C=C/C(C)=C/C=C/C=C(C)/C=C/C=C(C)/C=C/C2=C(C)CCCC2(C)C)C(C)(C)CCC1 .
Solution: 18

Exercise: // fetch inhibition; item: CC[C@@H](C)CC[C@H]1[C@@H](C)CC[C@H]2C(C)(C)CCC[C@]12C ; system: human gammaherpesvirus 4
Solution: 22.2

Exercise: Fill in inhibition for CC(C)c1cc(C=O)c2c(c1O)[C@H](O)[C@H]1C(C)(C)CCC[C@]21C tested with human gammaherpesvirus 4.
Solution: 16.7

Exercise: Look up and report measured inhibition (human gammaherpesvirus 4) for the following molecule: CC(=O)Oc1c(C(C)C)cc(C=O)c2c1[C@H](OC(C)=O)[C@H]1C(C)(C)CCC[C@]21C [STANDISHINAL DIACETATE]
Solution: 11.1

---

Parameter: inhibition. Scope: all listed entries.
tested on: human gammaherpesvirus 4; assay: Inhibition of TPA-induced EBV early antigen activation at 0.32 uM
Answer format: numeric, % implied, no suffix.

Below, 3 compounds whose answers are already recorded.
compound	targetSystem	unitsSymbol	inhibition
CC1=C(/C=C/C(C)=C/C=C/C(C)=C/C=C/C=C(C)/C=C/C=C(C)/C=C/C2=C(C)CCCC2(C)C)C(C)(C)CCC1	human gammaherpesvirus 4	%	0
CC[C@@H](C)CC[C@H]1[C@@H](C)CC[C@H]2C(C)(C)CCC[C@]12C	human gammaherpesvirus 4	%	4.5
CC(=O)Oc1c(C(C)C)cc(C=O)c2c1[C@H](OC(C)=O)[C@H]1C(C)(C)CCC[C@]21C [STANDISHINAL DIACETATE]	human gammaherpesvirus 4	%	0

Exercise: Please supply the value of reported inhibition for the item CC(C)c1cc(C=O)c2c(c1O)[C@H](O)[C@H]1C(C)(C)CCC[C@]21C
Solution: 0

---

// values below are reported EC50
tested on: KB; assay: Cytotoxicity against human KB cells; format: functional, cell-based
Report as a plain number; the unit µM is understood.

compound	targetSystem	EC50, µM
COc1cc([C@@H]2c3cc4c(cc3[C@@H](O[C@@H]3O[C@@H]5CO[C@@H](C)O[C@H]5[C@H](O)[C@H]3O)[C@H]3COC(=O)[C@H]23)OCO4)cc(OC)c1O [ETOPOSIDE]	KB	1.1
COc1c(O)c2c(c(O)c1C(C)C)[C@@H](C=O)[C@H]1C(C)(C)CCC[C@]21C [TAIWANIAQUINOL C]	KB	8.1
COc1c(O)c2c(c(O)c1C(C)C)C(C=O)=C1C(C)(C)CCC[C@@]12C [TAIWANIAQUINOL D]	KB	3.5

Exercise: State the measured EC50 (KB) of COC1=C(C(C)C)C(=O)C2=C(C1=O)[C@@]1(C)CCCC(C)(C)[C@@H]1[C@H]2C=O [TAIWANIAQUINONE]
Solution: 4.4

Exercise: Quote EC50 with test system KB for CC(C)C1=C(O)C(=O)C2=C(C1=O)C(C=O)=C1C(C)(C)CCC[C@]21C [TAIWANIAQUINONE D]
Solution: 7.2
